Kindly find below Ki information for Prothrombin (Homo sapiens, UniProt P00734) taken from the literature.
Provide only the numeric value, understood in µM.

# "CCN(CC)CCN(C)Cc1csc(C(=O)Nc2ccc(Cl)cc2C(=O)Nc2ccc(Cl)cc2)c1Cl" with Prothrombin (Homo sapiens, UniProt P00734): Ki is 0.12

Entry "O=C(Cn1c(Cl)cnc(NCC(F)(F)c2cccc[n+]2[O-])c1=O)NCc1cc(Cl)ccc1F" , Prothrombin (Homo sapiens, UniProt P00734) data, Ki value: 0.00016

Sample "CCCN(CC1CCC1)C(=O)c1cc(C)cc(OCCCON=C(N)N)c1" , system: Prothrombin (Homo sapiens, UniProt P00734). Its Ki is 0.017

Reported Prothrombin (Homo sapiens, UniProt P00734) Ki for item "N=C(N)c1ccc(/C=C2/CCCC/C(=C/c3ccc(C(=N)N)cc3)C2=O)cc1" was 0.43

Form field, Ki with Prothrombin (Homo sapiens, UniProt P00734), item "NCc1nccn1-c1ccc(NC(=O)c2cc(C(F)(F)F)nn2-c2ccc3onc(N)c3c2)c(F)c1" : 3.5

Form field, Ki with Prothrombin (Homo sapiens, UniProt P00734), item "CCOC(=O)CN(C)c1c(F)c(Oc2cccc(C3=NCCN3C)c2)nc(Oc2cc(C(=N)N)ccc2O)c1F" : 0.63

# value of Ki, Prothrombin (Homo sapiens, UniProt P00734), item "C=CCN(Cc1ccoc1)C(=O)c1cc(Cl)cc(OCCCONC(=N)N)c1" = 0.02

Param item: CN(C)C[C@H](Cc1ccccc1)Nc1ccncc1S(=O)(=O)N[C@@H](Cc1ccccc1)C(=O)N1CCC(CCF)CC1 (stereo in doubt; 8) ; param system: Prothrombin (Homo sapiens, UniProt P00734); output Ki: 0.13

Query CCOC(=O)CN(Cc1ccc(F)cc1)c1ccc2c(c1)OC(C)(COc1ccc(C(=N)N)cc1)CN2C (configuration not stated) on Prothrombin (Homo sapiens, UniProt P00734); Ki returned: 0.31

Observed Ki, Prothrombin (Homo sapiens, UniProt P00734), CC(=O)N[C@H](Cc1ccccc1)C(=O)N1CCC[C@H]1C(=O)N[C@@H](CCCNc1cc(Cl)nc(N)n1)B1O[C@@H]2CC3CC(C3(C)C)[C@]2(C)O1 (some centres not stated) : 0.043

Ki of "N=C(N)c1cccc(C[C@H](NS(=O)(=O)c2cccc(NC(=O)CCN)c2)C(=O)N2CCC(Cc3ccccc3)CC2)c1" , assay on Prothrombin (Homo sapiens, UniProt P00734), is 0.35

I looked up "Cc1nn(-c2ccc3onc(N)c3c2)c2c1CCN(c1ccc(-c3ccccc3CN(C)C)cc1)C2=O" and its Ki for Prothrombin (Homo sapiens, UniProt P00734) was 0.38

Record Cc1ccc(NS(=O)(=O)Cc2ccccc2)c(=O)n1CC(=O)NCC1CCc2n[nH]cc2C1 (configuration not stated) has Prothrombin (Homo sapiens, UniProt P00734) Ki equal to 0.17

###

Multi-source literature compilation: pKi on UniProt P00734.
pKi: −log10 of the molar value.
Tick T if pKi is 5 or greater. Tick F if pKi is less than 5.

Could you please find out whether "Cc1c(C)c(S(=O)(=O)N[C@@H](Cc2cccc(C(=N)N)c2)C(=O)N2CCN(C(=O)CCN=C(N)N)CC2)c(C)c2c1OC(C)(C)C2" has pKi that meets 5 or exceeds it? T

Given the entry "N=C(N)c1ccc(CNC(=O)N2CCN(C(=O)O[C@H]3CCC[C@@H](OC(=O)N4CCN(C(=O)NCc5ccc(C(=N)N)cc5)CC4)CCC3)CC2)cc1" , answer whether its pKi meets or surpasses 5. F

Check if pKi >= 5 (inclusive). Item: "N=C(N)c1cccc(OCCNC(=O)C2CCN(c3ccncc3)CC2)c1" F

Tell me whether pKi is at least 5 here: "CCCCN(Cc1ccoc1)C(=O)c1cc(C)cc(OCCCONC(=N)N)c1" T

Textbook exercise: given the entry "N=C(N)c1cccc(Cn2c(C(=O)NCc3cc(C(F)(F)F)cc(C(F)(F)F)c3)cc3c(O)cccc32)c1" , state whether its pKi is greater than or equal to 5. T

Check the entry "CN(C)C(=N)c1ccc(/C=C2\CCCC/C(=C\c3ccc(C(=N)N)cc3)C2=O)cc1" : does pKi equal or exceed 5? T

Kindly determine if pKi recorded for "CC(C)c1cc(C(C)C)c(S(=O)(=O)N[C@@H](Cc2cccc(C(=N)N)c2)C(=O)N2CCC(CCN=C(N)N)CC2)c(C(C)C)c1" is above or exactly 5. T

Has "COc1cc(Cc2c(-c3ccc(OCCN)cc3)sc3cc(O)ccc23)ccc1CN1CCCC1" a recorded pKi greater than or equal to 5? T
